- System: HEp-2
- Measurement Protocol: Anticancer activity against human Hep2 cells assessed as cell viability after 48 hrs by SRB assay
- Format: functional, cell-based
- Protocol Conditions: HEp-2, 48 h
Measured Endpoint: log10(IC50) (log10 of the value in nM)
Plainly stated, the numbers are log10 of IC50 given in nM.

These solved cases illustrate the format of a correct answer.
-- ask Name the recorded log10(IC50) for COc1cc([C@@H]2c3cc4c(cc3[C@@H](O[C@@H]3O[C@@H]5CO[C@@H](C)O[C@H]5[C@H](O)[C@H]3O)[C@H]3COC(=O)[C@H]23)OCO4)cc(OC)c1O [ETOPOSIDE] .
-- reply 2.95

-- ask Name the recorded log10(IC50) for `CC[C@@]1(O)C(=O)OCc2c1cc1n(c2=O)Cc2cc3ccccc3nc2-1` .
-- reply 2.85

-- ask Name the recorded log10(IC50) for `COc1cc([C@@H]2c3cc4c(cc3[C@@H](Nc3ccc(C(=O)c5ccc(N(CCCl)CCCl)cc5)cc3)[C@H]3COC(=O)[C@H]23)OCO4)cc(OC)c1OC` .
-- reply 2.95

-- ask Name the recorded log10(IC50) for `COc1cc([C@@H]2c3cc4c(cc3[C@@H](Nc3ccc(C(=O)c5ccc(F)cc5)cc3)[C@H]3COC(=O)[C@H]23)OCO4)cc(OC)c1O` .
-- reply 3.11

-- ask Name the recorded log10(IC50) for `COc1cc([C@@H]2c3cc4c(cc3[C@@H](Nc3cccc5cc6ccccc6cc35)[C@H]3COC(=O)[C@H]23)OCO4)cc(OC)c1O` .
-- reply 3.93

-- ask Name the recorded log10(IC50) for `COc1cc([C@@H]2c3cc4c(cc3[C@@H](Nc3cc5c6ccccc6ccc5c5ccccc35)[C@H]3COC(=O)[C@H]23)OCO4)cc(OC)c1O` .
-- reply 1.00

-- ask Name the recorded log10(IC50) for `COc1cc([C@@H]2c3cc4c(cc3[C@@H](Nc3ccc(C(=O)c5ccc(F)cc5)cc3)[C@H]3COC(=O)[C@H]23)OCO4)cc(OC)c1OC` .
-- reply 3.85

-- ask Name the recorded log10(IC50) for `COc1cc([C@@H]2c3cc4c(cc3[C@@H](Nc3cccc5c3Cc3ccccc3-5)[C@H]3COC(=O)[C@H]23)OCO4)cc(OC)c1OC` .
-- reply 3.48

-- ask Name the recorded log10(IC50) for `COc1cc([C@@H]2c3cc4c(cc3[C@@H](Nc3cccc5c3Cc3ccccc3-5)[C@H]3COC(=O)[C@H]23)OCO4)cc(OC)c1O` .
-- reply 3.00

-- ask Name the recorded log10(IC50) for `COc1cc([C@@H]2c3cc4c(cc3[C@@H](Nc3cccc5cc6ccccc6cc35)[C@H]3COC(=O)[C@H]23)OCO4)cc(OC)c1OC` .
-- reply 3.83

New cases:
-- ask Name the recorded log10(IC50) for `O=c1[nH]cc(F)c(=O)[nH]1` .
-- reply 2.48

-- ask Name the recorded log10(IC50) for `COc1cc([C@@H]2c3cc4c(cc3[C@@H](Nc3cc5c6ccccc6ccc5c5ccccc35)[C@H]3COC(=O)[C@H]23)OCO4)cc(OC)c1OC` .
-- reply 0.30

-- ask Name the recorded log10(IC50) for `COc1cc([C@@H]2c3cc4c(cc3[C@@H](Nc3ccc5ccc6cccc7ccc3c5c67)[C@H]3COC(=O)[C@H]23)OCO4)cc(OC)c1O` .
-- reply -0.70
